Biological target: T1, VLP noro antigen derived from the norovirus GII/4, composed by associating 90 dimers of VP1 each including … (norovirus GII/4, UniProt P54635 1-539)
T1 construct: Virus-like particle; also called solid phase VLP
T1 chain: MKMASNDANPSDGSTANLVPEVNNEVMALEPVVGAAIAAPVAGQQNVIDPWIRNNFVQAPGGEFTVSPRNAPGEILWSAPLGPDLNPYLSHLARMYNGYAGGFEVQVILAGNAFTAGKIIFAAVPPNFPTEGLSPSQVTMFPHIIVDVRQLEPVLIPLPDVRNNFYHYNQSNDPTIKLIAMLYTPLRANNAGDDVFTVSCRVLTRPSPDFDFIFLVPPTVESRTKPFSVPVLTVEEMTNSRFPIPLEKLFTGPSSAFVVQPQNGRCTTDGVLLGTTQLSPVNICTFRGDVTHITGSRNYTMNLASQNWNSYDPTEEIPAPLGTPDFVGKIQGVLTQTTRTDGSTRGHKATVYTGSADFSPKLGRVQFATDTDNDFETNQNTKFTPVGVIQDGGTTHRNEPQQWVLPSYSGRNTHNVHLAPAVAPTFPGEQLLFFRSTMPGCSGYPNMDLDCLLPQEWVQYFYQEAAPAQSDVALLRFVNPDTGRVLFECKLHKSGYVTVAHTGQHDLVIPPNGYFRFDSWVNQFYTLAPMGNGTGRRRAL
Experiment: SPR (T200, CM3), VLP noro antigen immobilized, antibody as analyte
experimentalEndpoint: kon
Note to self: number, then unit, no commentary.

Use the examples below as a reference point.
dimer antibody having two of the structural domains each having the amino acid sequence represented by SEQ ID NO: 38 (SEQ ID NO: 97) (VHH, also called Divalent 97) QVQLVESGGGVVQTGGSLRLSCAASGSTFSIGAMGWYRQAPGKQRELVATVNRASRTIYADSVRGRFTISRDNAKNLVYLQMNNLKPEDTAVYYCNVIATSASGRGVTSTSWGQGSQVTVSSGGGGSGGGASGGGGSQVQLVESGGGVVQTGGSLRLSCAASGSTFSIGAMGWYRQAPGKQRELVATVNRASRTIYADSVRGRFTISRDNAKNLVYLQMNNLKPEDTAVYYCNVIATSASGRGVTSTSWGQGSQVTVSSEPKTPKPQSASAA	2.32e+06 M⁻¹ s⁻¹
VHH antibody including the amino acid sequence represented by SEQ ID NO: 38 (VHH, Alpaca VHH expressed in E. coli; also called monomer antibody; not shown: C-terminal 3xFlag tag and His tag from the modified pET22b(+) vector) VHH: QVQLVESGGGVVQTGGSLRLSCAASGSTFSIGAMGWYRQAPGKQRELVATVNRASRTIYADSVRGRFTISRDNAKNLVYLQMNNLKPEDTAVYYCNVIATSASGRGVTSTSWGQGSQVTVSS	144000 M⁻¹ s⁻¹
dimer antibody (SEQ ID NO: 99) in which the structure domain of SEQ ID NO: 39 and the structure domain of SEQ ID NO: 38 are connected from N to C via a linker (VHH, Single-chain tandem heterodimer of two VHH domains (39 then 38); also called Divalent 99) QLQLVESGGGLVQAGGSLRLSCVASGFPFASSAMAWFRQAPGKEREFVASISYRGITTYYAQPVKGRFTMSRDNAKNTVYLQMNSLKPEDTAVYYCYAKSIWGNAYWGQGTQVTVSPGGGGSGGGASGGGGSQVQLVESGGGVVQTGGSLRLSCAASGSTFSIGAMGWYRQAPGKQRELVATVNRASRTIYADSVRGRFTISRDNAKNLVYLQMNNLKPEDTAVYYCNVIATSASGRGVTSTSWGQGSQVTVSSEPKTPKPQSASAA	3.75e+07 M⁻¹ s⁻¹

In the following, a different binder is considered.
Give the measured kon of dimer antibody (SEQ ID NO: 98) in which the structure domain of SEQ ID NO: 38 and the structure domain of SEQ ID NO: 39 are connected from N to C via a linker (VHH, Single-chain tandem heterodimer of two VHH domains (38 then 39); also called Divalent 98) QVQLVESGGGVVQTGGSLRLSCAASGSTFSIGAMGWYRQAPGKQRELVATVNRASRTIYADSVRGRFTISRDNAKNLVYLQMNNLKPEDTAVYYCNVIATSASGRGVTSTSWGQGSQVTVSSGGGGSGGGASGGGGSQLQLVESGGGLVQAGGSLRLSCVASGFPFASSAMAWFRQAPGKEREFVASISYRGITTYYAQPVKGRFTMSRDNAKNTVYLQMNSLKPEDTAVYYCYAKSIWGNAYWGQGTQVTVSPEPKTPKPQSASAA .
4.08e+06 M⁻¹ s⁻¹
